Attribution: ChEMBL document CHEMBL2311418

Test system: Mycobacterium tuberculosis
Assay: Antitubercular activity against Mycobacterium tuberculosis H37Rv ATCC27294 assessed as complete cessation of growth
Assay type: functional
Conditions: H37Rv ATCC 27294
endpoint: MIC (µM)
Give bare numbers, in µM.

Look over these answered cases.
>>> val("O=C(Nc1ccc(Br)c(C(F)(F)F)c1)c1cc(Cl)ccc1O")
3.1
>>> val("O=C(Nc1cc(C(F)(F)F)ccc1F)c1cc(F)ccc1O")
6.3
>>> val("O=C(Nc1cc(C(F)(F)F)cc(C(F)(F)F)c1)c1cc(I)ccc1O")
6.3
>>> val("O=C(Nc1cc(Cl)c(Cl)c(Cl)c1)c1cc(Cl)ccc1O")
1.6
>>> val("O=C(Nc1cc(F)c(F)c(F)c1)c1cc(Cl)ccc1O")
1.6

From here, focus on the item given below.
Dear colleague, I am looking for the recorded MIC of the following molecule: O=C(Nc1cccc(C(F)(F)F)c1)c1cc(F)ccc1O
6.3

---

Test system: Mycobacterium tuberculosis
Experiment: Antitubercular activity against Mycobacterium tuberculosis H37Rv ATCC27294 assessed as complete cessation of growth
Type: functional
Conditions: H37Rv ATCC 27294
I'd appreciate it if you could supply MIC values for the items below.
Give bare numbers, in µM.

>>> val("O=C(Nc1ccc(F)c(C(F)(F)F)c1)c1cc(Cl)ccc1O")
1.6
>>> val("O=C(Nc1ccc(F)c(F)c1)c1cc(Cl)ccc1O")
3.1
>>> val("O=C(NCc1cc(C(F)(F)F)cc(C(F)(F)F)c1)c1cc(Cl)ccc1O")
6.3
>>> val("O=C(Nc1cc(C(F)(F)F)cc(C(F)(F)F)c1)c1cc(Cl)cc(Cl)c1O")
13

From here, focus on the item given below.
Hello, I am looking for reported MIC with Mycobacterium tuberculosis for O=C(Nc1ccc(F)c(Cl)c1)c1cc(Cl)ccc1O . Could you help?
3.1

---

Assay: Cytotoxicity against mouse macrophage cell line J774.1 (ATCC TIB-67) for 3 days by Alamar Blue
Type: cell-based
Conditions: 72 h
I'd appreciate it if you could supply IC50 values for the items below.
Numbers only, in µM.

Look over these answered cases.
>>> val("O=C(Nc1ccc(F)cc1F)c1cc(Cl)ccc1O")
8.5
>>> val("O=C(Nc1ccc(Cl)c(C(F)(F)F)c1)c1cc(Cl)ccc1O")
4.5
>>> val("Cc1c(NC(=O)c2cc(Cl)ccc2O)cc(C(F)(F)F)cc1C(F)(F)F")
3.2
>>> val("O=C(Nc1ccc(C(F)(F)F)cc1Cl)c1cc(Cl)ccc1O")
2.4
>>> val("O=C(Nc1cccc(C(F)(F)F)c1)c1cc(Cl)ccc1O")
5.9
>>> val("O=C(Nc1cccc(F)c1F)c1cc(Cl)ccc1O")
13

Please go through the list and note IC50 for each molecule.
1. Cc1c(NC(=O)c2cc(Cl)ccc2O)cccc1C(F)(F)F
2. O=C(Nc1cc(C(F)(F)F)ccc1C(F)(F)F)c1cc(Cl)ccc1O
3. O=C(Nc1cc(F)cc(F)c1)c1cc(F)ccc1O
4. O=C(Nc1cc(C(F)(F)F)cc(C(F)(F)F)c1)c1cc(I)ccc1O

8
6.6
9.6
5.6

---

System: Mycobacterium tuberculosis
Assay: Antitubercular activity against Mycobacterium tuberculosis H37Rv ATCC27294 assessed as complete cessation of growth
Assay type: functional
Settings: H37Rv ATCC 27294
I'd appreciate it if you could supply MIC values for the items below.
Give bare numbers, in µM.

Look over these answered cases.
>>> val("O=C(Nc1cc(C(F)(F)F)ccc1C(F)(F)F)c1cc(Cl)ccc1O")
3.1
>>> val("O=C(Nc1cccc(F)c1F)c1cc(Cl)ccc1O")
13
>>> val("O=C(Nc1cccc(F)c1)c1cc(Cl)ccc1O")
6.3
>>> val("O=C(Nc1cc(C(F)(F)F)ccc1Cl)c1cc(F)ccc1O")
3.1

Please go through the list and note MIC for each molecule.
1. Cc1c(NC(=O)c2cc(Cl)ccc2O)cccc1C(F)(F)F
2. Cc1ccc(NC(=O)c2cc(Cl)ccc2O)cc1I
3. O=C(Nc1cc(F)c(Br)c(F)c1)c1cc(Cl)ccc1O
4. COc1cc(NC(=O)c2cc(Cl)ccc2O)c(Cl)cc1Cl
5. O=C(Nc1cc(C(F)(F)F)ccc1Br)c1cc(Cl)ccc1O
6. O=C(Nc1ccc(F)c(F)c1F)c1cc(Cl)ccc1O
7. N#Cc1ccc(NC(=O)c2cc(Cl)ccc2O)cc1

3.1
6.3
1.6
13
0.8
6.3
13
